experiment: Kinetic aqueous solubility of the compound; format: physicochemical; settings: buffer; read-out: Kinetic_solubility
Measurement Kind: solubility kinetic (µg/mL)

>>> obs_value("CC1=C(C(=O)Nc2nncs2)C(c2cccnc2Br)N=C(Nc2nc3ccccc3o2)N1 (centres undefined)")
11.1

[a] CC1=C(C(=O)N2CCOCC2)C(c2ccccc2Cl)N=C(Nc2nc3ccccc3o2)N1 (centres undefined)
[b] CC1=C(C(=O)Nc2nncs2)C(c2ncccc2Br)N=C(Nc2nc3ccccc3o2)N1 (centres undefined)
[c] CC1=C(C(=O)NCc2cncn2C)C(c2ccccc2Cl)N=C(Nc2nc3ccccc3o2)N1 (centres undefined)
Prompt: Put the items in order so that reported solubility kinetic rises from first to last. Write the labels out in the order the request specifies.
Response: b, a, c
(b: 3 µg/mL, a: 15.3 µg/mL, c: 42 µg/mL)

====

assay: Kinetic aqueous solubility of the compound; assay type: physicochemical; settings: buffer; read-out: Kinetic_solubility
Measurement Kind: solubility kinetic (µg/mL)

>>> obs_value("CC1=C(C(=O)Nc2cc(C(=O)O)ccn2)C(c2ccc(-c3ccc(C(F)(F)F)cc3)cc2Cl)N=C(Nc2nc3ccc(F)cc3o2)N1 (configuration not stated)")
8.1

[P] CN(C)CCNC(=O)C1CC(=O)C2=C(C1)NC(Nc1nc3ccccc3o1)=NC2c1ccccc1Cl (configuration not stated)
[Q] CCn1cc(CNC(=O)C2=C(C)NC(Nc3nc4cccc(N)c4o3)=NC2c2ccc(Cl)cc2Cl)cn1 (configuration not stated)
[R] CN(C)C(=O)C1CC(=O)C2=C(C1)NC(Nc1nc3ccccc3o1)=NC2c1ccccc1Cl (configuration not stated)
Prompt: Hey, quick one: sort these by solubility kinetic, largest value first please. Dear reader, please state the labels in the requested order.
Response: P, R, Q

====

assay: Kinetic aqueous solubility of the compound; type: physicochemical; details: buffer; read-out: Kinetic_solubility
Measurement Kind: solubility kinetic (µg/mL)

>>> obs_value("O=C1CC(C(=O)Nc2nncs2)CC2=C1C(c1ccccc1Cl)N=C(Nc1nc3ccccc3o1)N2 (stereo not drawn)")
1.23
>>> obs_value("CC1=C(C(=O)NCc2cn(C)cn2)[C@H](c2ccccc2Cl)N=C(Nc2nc3ccccc3o2)N1")
46.1
>>> obs_value("CC1=C(C(=O)Nc2cc(C(=O)O)ccn2)C(c2ccccc2Cl)N=C(Nc2nc3c(C)cccc3o2)N1 (stereo not drawn)")
3.5

[I] CC1=C(C(=O)Nc2cc(C(=O)O)ccn2)C(c2ccccc2Cl)N=C(Nc2nc3cccc(OC(F)(F)F)c3o2)N1 (stereo not drawn)
[II] CC1=C(C(=O)NCc2cnn(C)c2)C(c2ccccc2Cl)N=C(Nc2nc3ccc(F)cc3o2)N1 (stereo not drawn)
[III] CC1=C(C(=O)Nc2cc(C(=O)O)ccn2)C(c2ccc(N3CCCCC3)cc2Cl)N=C(Nc2nc3ccc(F)cc3o2)N1 (stereo not drawn)
[IV] CC1=C(C(=O)Nc2nncs2)C2(CCSCC2)N=C(Nc2nc3ccccc3o2)N1
[V] CC1=C(C(=O)NCc2cnn(C)c2)C(c2ccc(Cl)cc2Cl)N=C(Nc2nc3ccc(F)c(N)c3o2)N1 (stereo not drawn)
Prompt: In this exercise, place the 5 compounds in ascending sequence of their recorded solubility kinetic. Answer by listing the labels in the requested order.
Response: III, IV, V, II, I

====

Each entry below carries its reported solubility kinetic.
assay: Kinetic aqueous solubility of the compound; format: physicochemical; details: buffer; read-out: Kinetic_solubility

>>> obs_value("CC1=C(C(=O)Nc2cccc(Cl)c2)C(c2ccccc2Cl)N=C(Nc2nc3ccccc3o2)N1 (stereo not drawn)")
"< 1 µg/mL"
>>> obs_value("CC1=C(C(=O)Nc2ccc(C(=O)O)nc2)C(c2ccccc2Cl)N=C(Nc2nc3ccccc3o2)N1 (stereo not drawn)")
"24.6 µg/mL"
>>> obs_value("CCOC(=O)c1ccc(NC(=O)C2=C(C)NC(Nc3nc4ccccc4o3)=NC2c2ccccc2Cl)cc1 (stereo not drawn)")
"< 1 µg/mL"
>>> obs_value("CC1=C(C(=O)Nc2nncs2)C(c2ccc(C)cc2Cl)N=C(Nc2nc3ccccc3o2)N1 (stereo not drawn)")
"< 1 µg/mL"
>>> obs_value("CC1=C(C(=O)NCc2cnn(CC(F)(F)F)c2)C(c2ccc(C)cc2Cl)N=C(Nc2nc3ccc(F)c(N)c3o2)N1 (stereo not drawn)")
"1.56 µg/mL"
>>> obs_value("COc1cccc(C2N=C(Nc3nc4ccc(F)cc4o3)NC(C)=C2C(=O)Nc2cc(C(=O)O)ccn2)c1Cl (stereo not drawn)")
"> 81 µg/mL"
>>> obs_value("CC1=C(C(=O)Nc2cc(C(=O)O)ccc2Cl)C(c2ccccc2Cl)N=C(Nc2nc3ccc(F)cc3o2)N1 (stereo not drawn)")
"54 µg/mL"

# ---- query compound ----
// CC(C)CC1=C(C(=O)Nc2nncs2)C(c2ccccc2Cl)N=C(Nc2nc3ccccc3o2)N1 (stereo not drawn) : solubility kinetic value = < 1 µg/mL

====

assay: Stability of compound in rat microsomes assessed as half-life; format: ADME, Microsome
Measurement Kind: half-life (min)

>>> obs_value("COC(=O)c1ccnc(NC(=O)C2=C(C)NC(Nc3nc4ccccc4o3)=NC2c2ccccc2Cl)c1 (centres undefined)")
18.4
>>> obs_value("CC1=C(C(=O)NCc2cnn(C)c2)C(c2ccccc2Cl)N=C(Nc2nc3ccccc3o2)N1 (centres undefined)")
15.7
>>> obs_value("CC1=C(C(=O)NCc2cnn(C)c2C)C(c2ccc(C)cc2Cl)N=C(Nc2nc3ccc(F)cc3o2)N1 (centres undefined)")
2.99

[I] CC1=C(C(=O)NCc2cccnc2)C(c2ccccc2Cl)N=C(Nc2nc3ccccc3o2)N1 (centres undefined)
[II] COC(=O)c1ccc(NC(=O)C2=C(C)NC(Nc3nc4ccccc4o3)=NC2c2ccccc2Cl)cc1 (centres undefined)
Prompt: Identify the item whose half-life is the smaller number: I or II Please respond with the label that marks your chosen entry.
Response: I
(I: 1.58 min, II: 17.7 min)

[P] COc1ccccc1CNC(=O)C1=C(C)NC(Nc2nc3ccccc3o2)=NC1c1ccccc1Cl (centres undefined)
[Q] CC1=C(C(=O)Nc2cc(N(C)C)ccn2)C(c2ccc(C)cc2Cl)N=C(Nc2nc3ccc(F)cc3o2)N1 (centres undefined)
Prompt: Which shows the larger half-life value: P or Q ? In your reply, give the label of the chosen option.
Response: Q

====

assay: Stability of compound in rat microsomes assessed as half-life; format: ADME, Microsome
Measurement Kind: half-life (min)

[A] CN(C)C(=O)C1CC(=O)C2=C(C1)NC(Nc1nc3ccccc3o1)=NC2c1ccccc1Cl (stereo not given)
[B] CC1=C(C(=O)Nc2ccc(N(C)C)cc2)C(c2ccccc2Cl)N=C(Nc2nc3ccccc3o2)N1 (stereo not given)
Prompt: Compare reported half-life values for A and B . Which is lower? Your answer should be the label of the entry you select.
Response: B

====

Reported solubility kinetic values are given for each entry in this list.
experiment: Kinetic aqueous solubility of the compound; format: physicochemical; details: buffer; read-out: Kinetic_solubility

>>> obs_value("CC1=C(C(=O)Nc2ccc(C(=O)O)cc2)C(c2ccccc2Cl)N=C(Nc2nc3ccccc3o2)N1 (centres undefined)")
"< 1 µg/mL"
>>> obs_value("CC1=C(C(=O)Nc2ccccc2Cl)C(c2ccccc2Cl)N=C(Nc2nc3ccccc3o2)N1 (centres undefined)")
"< 1 µg/mL"
>>> obs_value("CC1=C(C(=O)Nc2cc(C(=O)O)ccn2)C(c2cccc(C(F)(F)F)c2)N=C(Nc2nc3ccc(F)cc3o2)N1 (centres undefined)")
"60.1 µg/mL"

Lab book: solubility kinetic of CC1=C(C(=O)NCc2ccccc2CO)C(c2ccccc2Cl)N=C(Nc2nc3ccccc3o2)N1 (centres undefined) noted as < 1 µg/mL

Please fill in: solubility kinetic reported for CC1=C(C(=O)Nc2cc(C(=O)O)ccn2)C(c2ccccc2Cl)N=C(Nc2nc3c(N)cccc3o2)N1 (centres undefined) = > 76 µg/mL

Quick note, solubility kinetic for CCOC(=O)C1=C(C(C)C)NC(Nc2nc3ccccc3o2)=NC1c1ccccc1Cl (centres undefined) landed at < 1 µg/mL

Per the records, this molecule ( CC1=C(C(=O)Nc2ccc(Cl)cc2)C(c2ccccc2Cl)N=C(Nc2nc3ccccc3o2)N1 (centres undefined) ) has solubility kinetic equal to < 1 µg/mL

Notebook: CC1=C(C(=O)Nc2nc(CO)cs2)C(c2ccccc2Cl)N=C(Nc2nc3ccccc3o2)N1 (centres undefined) , solubility kinetic read as < 1 µg/mL

response.value for CC1=C(C(=O)Nc2ccc(Cl)cn2)C(c2ccccc2Cl)N=C(Nc2nc3ccccc3o2)N1 (centres undefined) (field: solubility kinetic) = < 1 µg/mL

====

assay: Inhibition of recombinant mouse GALK1 using ATP as substrate incubated for 1 hr and measured by Kinase-Glo assay; conditions: read-out: IC50
pIC50: −log10 of the molar value.
Measurement Kind: pIC50

Solved cases (5 shown):
>>> obs_value("CC1=C(C(=O)NCc2ccc(CO)cc2)C(c2ccccc2Cl)N=C(Nc2nc3ccccc3o2)N1 (stereo not drawn)")
4.81
>>> obs_value("CC1=C(C(=O)Nc2cc(C(=O)O)ccn2)C(c2ccc(-c3ccc(C)nc3)cc2Cl)N=C(Nc2nc3ccc(F)cc3o2)N1 (stereo not drawn)")
5.91
>>> obs_value("CC1=C(C(=O)NCc2ccccc2CO)C(c2ccccc2Cl)N=C(Nc2nc3ccccc3o2)N1 (stereo not drawn)")
4.81
>>> obs_value("O=C1CC(C(=O)O)CC2=C1C(c1ccccc1Cl)N=C(Nc1nc3ccccc3o1)N2 (stereo not drawn)")
5.16
>>> obs_value("CC1=C(C(=O)Nc2cc(C(=O)O)ccn2)C(c2cccc(S(N)(=O)=O)c2)N=C(Nc2nc3ccc(F)cc3o2)N1 (stereo not drawn)")
4.41

[a] CC1=C(C(=O)Nc2cccc(C(=O)O)n2)C(c2ccccc2Cl)N=C(Nc2nc3ccccc3o2)N1 (stereo not drawn)
[b] CN(C)C(=O)C1CC(=O)C2=C(C1)NC(Nc1nc3ccccc3o1)=NC2c1ccccc1Cl (stereo not drawn)
[c] CC1=C(C(=O)Nc2nnc(-c3ccncc3)s2)C(c2ccccc2Cl)N=C(Nc2nc3ccccc3o2)N1 (stereo not drawn)
[d] CC1=C(C(=O)Nc2nncs2)C(c2n[nH]cc2Cl)N=C(Nc2nc3ccccc3o2)N1 (stereo not drawn)
Prompt: Rank order required: pIC50, descending. Please list each label once, in the requested order.
Response: b, a, c, d

[1] O=C1CC(C(=O)NCCO)CC2=C1C(c1ccccc1Cl)N=C(Nc1nc3ccccc3o1)N2 (stereo not drawn)
[2] CC(C)C1=C(C(=O)Nc2nncs2)C(c2ccccc2Cl)N=C(Nc2nc3ccccc3o2)N1 (stereo not drawn)
Prompt: Exercise: compare 1 and 2 ; which one has the greater pIC50? Label of pick, please.
Response: 1
(1: 5.26, 2: 4.81)
